studySystem: T1, Recombinant cynomolgus TfR1, His6-tagged (a.a. 89-760) (cynomolgus, UniProt H9EXL1 89-760 (rhesus entry))
T1 construct: range 89-760; same product number named for FP and SPR; also called Cyno TfR1; Acro Biosystems TFR-C524a
T1 sequence (chain, as listed by the source): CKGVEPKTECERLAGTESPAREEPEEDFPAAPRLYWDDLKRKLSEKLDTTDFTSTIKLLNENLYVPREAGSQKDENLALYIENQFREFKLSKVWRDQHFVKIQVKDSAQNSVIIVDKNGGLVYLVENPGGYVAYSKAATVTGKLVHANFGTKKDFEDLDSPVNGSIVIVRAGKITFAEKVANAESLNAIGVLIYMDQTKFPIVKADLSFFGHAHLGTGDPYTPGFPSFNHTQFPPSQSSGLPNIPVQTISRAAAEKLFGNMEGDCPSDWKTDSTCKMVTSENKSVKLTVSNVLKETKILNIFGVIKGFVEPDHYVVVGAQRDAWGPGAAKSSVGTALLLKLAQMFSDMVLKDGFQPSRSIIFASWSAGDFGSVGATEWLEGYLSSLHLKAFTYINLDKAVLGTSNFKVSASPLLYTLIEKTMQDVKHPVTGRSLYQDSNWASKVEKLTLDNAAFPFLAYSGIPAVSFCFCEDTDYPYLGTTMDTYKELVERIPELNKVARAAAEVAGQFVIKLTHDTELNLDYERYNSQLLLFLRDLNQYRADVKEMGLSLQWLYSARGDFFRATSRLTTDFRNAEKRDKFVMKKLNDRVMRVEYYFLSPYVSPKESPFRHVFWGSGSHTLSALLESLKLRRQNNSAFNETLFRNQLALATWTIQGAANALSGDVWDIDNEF
assayRemarks: FP direct binding
Starred links: 1 amine or outer side, 2 acyl side, 3 side chain; linkers in the order of their positions; H or OH if unused. Positions of bridges follow the written chain, without caps; N, C: chain ends. Non-standard residues stand in square brackets, D forms with d. No end group written: not given here. Fluorescein = fluorescein label on the C-terminal Lys side chain; TATA = O=C(CC[*:1])N1CN(C(=O)CC[*:2])CN(C(=O)CC[*:3])C1; TATB = O=C(C[*:1])N1CN(C(=O)C[*:2])CN(C(=O)C[*:3])C1; Sar = CNCC(=O)O
recordedMetric: pKd
Give bare numbers, as −log10 of the molar value.

I'd like to know its pKd. The binder in question is ACSPDAHLGCISYCAXXXXXXK (3 Cys on TATB; [Sar6]; C-terminal Lys carries fluorescein) [BCY15768]
6.15

Same read-out for ACSSDAYLGCISWCA[Sar][Sar][Sar][Sar][Sar][Sar]K(Fluorescein) (linker 2-10-14 via TATB) [BCY14475] ?
5.58

Now give it for ACPPDSWQGCISYCA[Sar][Sar][Sar][Sar][Sar][Sar]K(Fluorescein) (linker 2-10-14 via TATB) [BCY14476] too.
5.44

// next item, pKd requested
Requested read-out: pKd. Entry: ACALCNDWTLPWHHCA[Sar][Sar][Sar][Sar][Sar][Sar]K(Fluorescein) (linker 2-5-15 via TATA) [BCY12652]
7.01
